System: OVCAR-8 ovarian
Test: NCI tumour cell line growth inhibition, 48 h
assay readout: TGI

Below are worked cases with known answers.
1. O=c1cccc(Cl)[nH]1 :: > 100 µM
2. OCC(O)C(O)C(O)c1nn(-c2ccc(F)cc2)c2nc3cc(Cl)c(Cl)cc3nc12 (stereo not given) :: 23 µM
3. O=C1OC([C@H](O)c2cccnc2)c2ccccc21 (stereo not given in full) :: > 10 µM
4. COc1ccc(C2C3CCc4ccccc4C3=NN2S(=O)(=O)c2cccc(C(=O)O)c2OC)cc1 (stereo not given) :: > 100 µM

Please look at the following molecule next.
Identify TGI associated with the molecule C1=CC2CCC1CN2CCC1CNc2ccccc21 (stereo not given)
> 100 µM

---

Test system: SF-295 CNS
Test: NCI tumour cell line growth inhibition, 48 h
assay readout: TGI

// known answers, use as guide
1) COc1cccc(/C=N\NC(=O)C(C)SC(C)C(=O)N/N=C/c2cccc(OC)c2)c1 (stereo not drawn) :: > 88.6 µM
2) COc1cc(C2c3cc4c(cc3C(=O)C3CCC(=O)N32)OCO4)cc(OC)c1O (stereo not drawn) :: > 50 µM

Please look at the following compound next.
Supply TGI value. Item: Nc1nc(SCC(=O)c2ccc(Br)cc2)c2[nH]cnc2n1
> 100 µM

---

Tested on: U251 CNS
Assay: NCI tumour cell line growth inhibition, 48 h
assay readout: TGI

As a guide, the following entries are already answered.
1. CCOC(=O)c1c(CN2CCN(C)CC2)nc2ccc(Cl)cc2c1-c1ccccc1 :: 23 µM
2. COc1ccc(-c2nc(-c3cnccn3)n(C3OC(CO)C(O)C3O)n2)cc1 (stereo not drawn) :: > 10 µM
3. O=C1CCC(=O)N1Sc1ccccc1 :: > 100 µM
4. O=C1c2c(Br)sc(Br)c2[C@@H](O)[C@H]1O :: 20.8 µM
5. CCOC(=O)[C@@H]1CSC(CC)=C(C(=O)O)N1 :: > 100 µM
6. C[C@@H]1CCc2ncc(F)cc2[C@H]2CCCN2c2ccn3ncc(c3n2)C(=O)N1 :: > 100 µM
7. CN(C)c1ccc(-c2ccc(-c3ccc(C(=N)N)cn3)o2)cc1 :: 2.91 µM

Query compound follows.
Supply reported TGI belonging to this compound: CC(O)[C@H](NC(=O)N[C@@H](CC(N)=O)c1nc(N2CCNCC2)no1)C(=O)O (stereo partly drawn)
> 100 µM

---

// reported TGI for each item listed
System: NCI-H460 lung
Assay: NCI tumour cell line growth inhibition, 48 h
Provide the reading as a plain figure in µM.

1) COc1cccc(/C=N\NC(=O)C(C)SC(C)C(=O)N/N=C/c2cccc(OC)c2)c1 (stereo not given) :: 23.2

State, for NCI-H460 lung, measured TGI of the molecule listed here: N#C/C(=C(/O)CCl)c1nc2ccccc2o1
14.3

---

Tested on: DU-145 prostate
Experiment: NCI tumour cell line growth inhibition, 48 h
assay readout: TGI (µM)
// return numeric value only (unit: µM, not printed)

Consider the following illustrative entries.
1) CC(C)(C)O/N=C/c1cc(NC(=S)c2ccsc2)ccc1Cl :: 17.1
2) CS(=O)(=O)Nc1cc(-c2ccc3ncnc(Nc4cccc(Cl)c4)c3c2)cnc1Cl :: 10.3
3) O=[N+]1[C@H](c2ccccc2)[C@H](c2ccccc2)N1[O-] :: 30.1

Fill: TGI (DU-145 prostate) for this compound O=C(Nc1ccccc1)OCCN=C1c2ccccc2CCc2ccccc21
91.3
